measured-on: rat NaPi-2b (Rattus norvegicus, UniProt Q9JJ09)
Construct: expressed in transfected cells; host or cells: Xenopus oocytes injected with cRNA
measurement-description: Sodium-dependent phosphate uptake of Xenopus oocytes which expressed NaPi-2b (32P)
Format: cell-based
condition-details: phosphate uptake, oocytes expressing rat NaPi-2b; 300 μM, determined from inhibition curve
quantity-kind: inhibition at 300 µM (%)
Supply the numeric figure in %, leaving out any unit text.

Read the entry Cc1cccc(/C=N/NC(=O)c2cc(Cl)ccc2NC(=O)c2cccc(CSCc3ccco3)c2)c1 and write its reported inhibition at 300 µM. 58.4

Read the entry CN1CCCN(c2ccc3nc(-c4cccc(CSCCO)c4)n(/N=C/c4ccc(Cl)c(C(F)(F)F)c4)c(=O)c3c2)CC1 and write its reported inhibition at 300 µM. 36.1

Read the entry CCN(CC)CCN(C)Cc1cccc(C(=O)Nc2c(C)csc2C(=O)N/N=C/c2ccc(C)cc2)c1 and write its reported inhibition at 300 µM. 83.1

Read the entry COc1ccc(/C=N/NC(=O)c2cscc2NC(=O)c2cccc(CN(CC(C)O)CC(C)O)c2)cc1 (stereo not shown) and write its reported inhibition at 300 µM. 73.7

Read the entry COc1ccc(/C=N/NC(=O)c2cc(Br)ccc2NC(=O)c2ccc(CN3CCN(c4ccccn4)CC3)cc2)cc1 and write its reported inhibition at 300 µM. 34.2

Read the entry CCN(CC)CCN(C)Cc1cccc(C(=O)Nc2ccc(N3CCCN(C)CC3)cc2C(=O)N/N=C/c2ccc(OC)cc2)c1 and write its reported inhibition at 300 µM. 31.2

Read the entry COc1cccc(/C=N/NC(=O)c2cc(Br)ccc2NC(=O)c2ccc(CNCCN3CCOCC3)cc2)c1 and write its reported inhibition at 300 µM. 85.8

Read the entry CCN(CC)CCN(C)Cc1cccc(C(=O)Nc2cc(OCCOC)c(OCCOC)cc2C(=O)N/N=C/c2ccc(Cl)c(C(F)(F)F)c2)c1 and write its reported inhibition at 300 µM. 58.8

Read the entry Cc1ccc(/C=N/NC(=O)c2ccsc2NC(=O)c2cccc(CN(CC(C)O)CC(C)O)c2)cc1C (stereo not shown) and write its reported inhibition at 300 µM. 70.2

Read the entry COc1cccc(/C=N/NC(=O)c2cc(Br)ccc2NC(=O)c2ccc(CN3CCN(c4ccccn4)CC3)cc2)c1 and write its reported inhibition at 300 µM. 39.1

###

measured-on: rat NaPi-2b (Rattus norvegicus)
measurement-description: Sodium-dependent phosphate uptake of Xenopus oocytes which expressed NaPi-2b (32P)
condition-details: Xenopus oocytes expressing rat NaPi-2b, 32P radioactive phosphorus; read-out: IC50 (phosphate uptake inhibitory activity)
quantity-kind: log10 IC50 (log10 of the value in µM)
// stored as log10 of IC50 expressed in µM

Read the entry COc1ccc(C(=O)Nc2ccccc2C(=O)N/N=C/c2ccc(C)cc2)cc1 and write its reported log10 IC50. 0.66

Read the entry O=C(Nc1ccc(Br)cc1C(=O)N/N=C/c1ccc(Cl)c(C(F)(F)F)c1)c1cccnc1 and write its reported log10 IC50. 1.41

Read the entry COc1ccc(NC(=O)c2cccc(CSCC(O)CO)c2)c(C(=O)N/N=C/c2ccc(Cl)c(C(F)(F)F)c2)c1 (stereo not drawn) and write its reported log10 IC50. -0.41

Read the entry CC(O)CN(Cc1ccc(C(=O)Nc2ccc(Br)cc2C(=O)N/N=C/c2ccc(F)cc2)cc1)CC(C)O (stereo not drawn) and write its reported log10 IC50. 0.98

Read the entry CC(O)CN(Cc1ccc(C(=O)Nc2ccc(Br)cc2C(=O)N/N=C/c2cccc(F)c2)cc1)CC(C)O (stereo not drawn) and write its reported log10 IC50. 0.55

Read the entry Cc1ccc(/C=N/NC(=O)c2c(C)csc2NC(=O)c2cccc(CN3CCN(c4ncccn4)CC3)c2)cc1 and write its reported log10 IC50. 0.54

###

measured-on: rat NaPi-2b (Rattus norvegicus)
measurement-description: Sodium-dependent phosphate uptake of Xenopus oocytes which expressed NaPi-2b (32P)
condition-details: Xenopus oocytes expressing rat NaPi-2b, 32P radioactive phosphorus; read-out: IC50 (phosphate uptake inhibitory activity)
Could you please report measured IC50 for the items listed next?

Read the entry Cc1cccc(/C=N/NC(=O)c2cc(Br)ccc2NC(=O)c2ccc(CSc3ccncc3)cc2)c1 and write its reported IC50. < 3 µM

Read the entry O=C(Nc1ccc(Cl)cc1C(=O)N/N=C/c1ccc(Cl)c(C(F)(F)F)c1)c1ccccn1 and write its reported IC50. < 1 µM

Read the entry O=C(Nc1ccc(I)cc1C(=O)N/N=C/c1cccc(O)c1)c1cccc(CN2CCC(N3CCCCC3)CC2)c1 and write its reported IC50. < 3 µM

###

measured-on: rat NaPi-2b (Rattus norvegicus, UniProt Q9JJ09)
Construct: expressed in transfected cells; host or cells: Xenopus oocytes injected with cRNA
Sequence (Q9JJ09 1-695): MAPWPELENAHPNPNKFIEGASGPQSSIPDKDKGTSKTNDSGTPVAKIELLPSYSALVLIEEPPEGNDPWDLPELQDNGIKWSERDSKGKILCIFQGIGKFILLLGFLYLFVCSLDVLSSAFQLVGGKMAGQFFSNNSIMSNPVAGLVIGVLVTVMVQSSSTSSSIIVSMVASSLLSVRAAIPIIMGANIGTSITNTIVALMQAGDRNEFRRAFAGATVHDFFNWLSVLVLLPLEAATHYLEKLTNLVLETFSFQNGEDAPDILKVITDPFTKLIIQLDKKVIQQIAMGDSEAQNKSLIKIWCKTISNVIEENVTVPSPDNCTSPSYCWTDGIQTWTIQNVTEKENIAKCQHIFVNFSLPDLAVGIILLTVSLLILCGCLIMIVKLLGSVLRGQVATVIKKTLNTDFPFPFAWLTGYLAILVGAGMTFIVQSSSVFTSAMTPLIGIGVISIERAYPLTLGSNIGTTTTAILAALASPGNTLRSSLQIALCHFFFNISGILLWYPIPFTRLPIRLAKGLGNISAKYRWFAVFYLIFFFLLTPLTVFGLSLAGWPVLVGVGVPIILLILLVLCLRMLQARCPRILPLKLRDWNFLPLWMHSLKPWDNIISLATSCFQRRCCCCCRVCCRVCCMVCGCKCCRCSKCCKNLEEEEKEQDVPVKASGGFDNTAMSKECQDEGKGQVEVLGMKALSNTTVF
measurement-description: Sodium-dependent phosphate uptake of Xenopus oocytes which expressed NaPi-2b (32P)
Format: cell-based
condition-details: Xenopus oocytes expressing rat NaPi-2b, 32P radioactive phosphorus; read-out: IC50 (phosphate uptake inhibitory activity)
pIC50: −log10 of the molar value.
Could you please report measured pIC50 for the items listed next?

Read the entry Cc1ccc(/C=N/NC(=O)c2cc3ccccc3cc2NC(=O)c2cccc(CN3CCN(CCO)CC3)c2)cc1 and write its reported pIC50. > 5.52

Read the entry CCN(CC)CCN(C)Cc1cccc(C(=O)Nc2ccc(Cl)cc2C(=O)N/N=C/c2ccc(OC)cc2)c1 and write its reported pIC50. > 5.52

Read the entry CCN(CC)CCNCc1cccc(C(=O)Nc2sc3c(c2C(=O)N/N=C/c2cccc(F)c2)CCC3)c1 and write its reported pIC50. 5.25

Read the entry CN1CCN(c2ccc(NC(=O)c3cccc(CSCCO)c3)c(C(=O)N/N=C/c3ccc(Cl)c(C(F)(F)F)c3)c2)CC1 and write its reported pIC50. 5.41

Read the entry O=C(Nc1ccc(Cl)cc1C(=O)N/N=C/c1cccc(O)c1)c1cccc(CN(CCO)CCO)c1 and write its reported pIC50. 5.39

Read the entry Cc1ccc(CNNC(=O)c2cc(Cl)ccc2NC(=O)c2cccc(CSCCO)c2)cc1C and write its reported pIC50. > 5.52

Read the entry CCN(CC)CCN(C)Cc1cccc(-c2nc3sc4c(c3c(=O)n2/N=C/c2ccc(OC)cc2)CCCC4)c1 and write its reported pIC50. > 5.52

Read the entry COc1ccc(C(=O)Nc2ccc(I)cc2C(=O)N/N=C/c2cccc(F)c2)cc1OC and write its reported pIC50. > 5.52

###

measured-on: rat NaPi-2b (Rattus norvegicus, UniProt Q9JJ09)
measurement-description: Sodium-dependent phosphate uptake of Xenopus oocytes which expressed NaPi-2b (32P)
condition-details: Xenopus oocytes expressing rat NaPi-2b, 32P radioactive phosphorus; read-out: IC50 (phosphate uptake inhibitory activity)
Could you please report measured IC50 for the items listed next?

Read the entry Cc1ccc(/C=N/NC(=O)c2cc(Br)ccc2NC(=O)c2ccc(CSc3ccncc3)cc2)cc1C [Compound 259] and write its reported IC50. < 3 µM

Read the entry Cc1ccc(/C=N/NC(=O)c2c(C)csc2NC(=O)c2cccc(CN3CCC(O)CC3)c2)cc1C [Compound 593] and write its reported IC50. < 3 µM

Read the entry O=C(Nc1ccc(Br)cc1C(=O)N/N=C/c1cccc(F)c1)c1ccc(CSCCO)cc1 [Compound 261] and write its reported IC50. < 3 µM

###

measured-on: rat NaPi-2b (Rattus norvegicus)
measurement-description: Sodium-dependent phosphate uptake of Xenopus oocytes which expressed NaPi-2b (32P)
condition-details: Xenopus oocytes expressing rat NaPi-2b, 32P radioactive phosphorus; read-out: IC50 (phosphate uptake inhibitory activity)
quantity-kind: IC50

Read the entry O=C(Nc1ccc(Br)cc1C(=O)N/N=C/c1cccc(F)c1)c1ccccn1 and write its reported IC50. 0.35 µM

Read the entry Cc1ccc(/C=N/NC(=O)c2cc(Cl)ccc2NC(=O)c2cccnc2)cc1 and write its reported IC50. 7.87 µM

Read the entry CCN(CC)CCN(C)Cc1cccc(C(=O)Nc2ccc(OCCCCF)cc2C(=O)N/N=C/c2cccc(F)c2)c1 and write its reported IC50. 1.26 µM

Read the entry COc1ccc(/C=N/NC(=O)c2c(C)csc2NC(=O)c2cccc(CSCCCO)c2)cc1 and write its reported IC50. < 1 µM

Read the entry Cc1ccc(/C=N/NC(=O)c2c(NC(=O)c3cccc(CN4CCC(N5CCCCC5)CC4)c3)sc3c2CCCC3)cc1 and write its reported IC50. 13.9 µM

Read the entry O=C(Nc1sccc1C(=O)N/N=C/c1ccc(Cl)c(C(F)(F)F)c1)c1cccc(CSCCCO)c1 and write its reported IC50. 3.2 µM

Read the entry COc1ccc(C(=O)Nc2ccccc2C(=O)N/N=C/c2ccsc2)cc1OC and write its reported IC50. 20.9 µM

Read the entry Cc1ccc(/C=N/NC(=O)c2cc(N3CCCCC3)ccc2NC(=O)c2cccc(CSCCC(=O)O)c2)cc1 and write its reported IC50. 1.75 µM

Read the entry CCN(CC)CCN(C)Cc1cccc(C(=O)Nc2ccc(I)cc2C(=O)N/N=C/c2ccc(C)cc2)c1 and write its reported IC50. < 3 µM

Read the entry O=C(Nc1ccc(Br)cc1C(=O)N/N=C/c1ccc(Cl)c(C(F)(F)F)c1)c1ccc(CNCCCN(CCO)CCO)cc1 and write its reported IC50. 1.12 µM

Read the entry Cc1ccc(/C=N/NC(=O)c2cccnc2NC(=O)c2cccc(CN(CC(C)O)CC(C)O)c2)cc1C (stereo not drawn) and write its reported IC50. 16 µM

Read the entry O=C(Nc1ccc(N2CCCCC2)cc1C(=O)N/N=C/c1cccc(F)c1)c1cccc(CN2CCN(CCO)CC2)c1 and write its reported IC50. 2.24 µM

Read the entry COc1ccccc1/C=C/C=N/NC(=O)c1cc(Br)ccc1NC(=O)c1cccnc1 and write its reported IC50. 13 µM

Read the entry COc1ccc(C(=O)Nc2ccc(Cl)cc2C(=O)N/N=C/c2ccc(C)cc2)cc1OC and write its reported IC50. 0.36 µM

Read the entry Cc1ccc(/C=N/NC(=O)c2c(C)csc2NC(=O)c2cccc(CN3CCC4(CC3)OCCO4)c2)cc1C and write its reported IC50. 4.97 µM

Read the entry CCN(CC)CCN(C)Cc1ccc(C(=O)Nc2ccc(Br)cc2C(=O)N/N=C/c2cccc(C)c2)cc1 and write its reported IC50. 0.57 µM

Read the entry COc1ccc(/C=N/NC(=O)c2cc(N3CCCCC3)ccc2NC(=O)c2cccc(CSCC(O)CO)c2)cc1 (stereo not drawn) and write its reported IC50. 1.71 µM

Read the entry O=C(Nc1ccc(Br)cc1C(=O)N/N=C/c1ccc(F)cc1)c1ccc(CN2CCN(CC(=O)N3CCOCC3)CC2)cc1 and write its reported IC50. 15.7 µM

Read the entry Cc1cccc(/C=N/NC(=O)c2cc(I)ccc2NC(=O)c2cccc(CN3CCC(N4CCCCC4)CC3)c2)c1 and write its reported IC50. < 3 µM

Read the entry Cc1ccc(/C=N/NC(=O)c2cc(Cl)ccc2NC(=O)c2cccc(CS(=O)(=O)Cc3ccco3)c2)cc1C and write its reported IC50. < 3 µM

Read the entry Cc1ccc(/C=N/n2c(-c3cccc(CSc4nc[nH]n4)c3)nc3sc4c(c3c2=O)CCCC4)cc1 and write its reported IC50. 5.62 µM

Read the entry CCN(CC)CCN(C)Cc1cccc(C(=O)Nc2cc(OCCOC)c(OCCOC)cc2C(=O)N/N=C/c2cccc(F)c2)c1 and write its reported IC50. 29.1 µM

Read the entry CCN(CC)Cc1cccc(C(=O)Nc2sc(CN3CCCCC3)c(C)c2C(=O)N/N=C/c2ccc(Cl)c(C(F)(F)F)c2)c1 and write its reported IC50. 29.8 µM

Read the entry O=C(Nc1ccc(Br)cc1C(=O)N/N=C/c1ccc(Cl)c(C(F)(F)F)c1)c1cccc(CSc2ccncc2)c1 and write its reported IC50. 0.39 µM
